- System: HOP-18
- ASSAY REMARKS: NCI tumour cell line growth inhibition, 48 h
The source made the active and inactive calls. Rule as the data show it: active = GI50 up to about 1.1 µM and inactive = higher.
Log the outcome using a class from active, inactive

Example results:
O=C1C(c2ccccc2)=[N+]([O-])c2cc([N+](=O)[O-])c(/C(Cl)=C/c3ccccc3)cc21 = inactive
c1ccc2c(c1)N=C(c1ccc3ccccc3c1)CC(c1cccc3ccccc13)S2 (stereo unspecified) = inactive
COc1ccc(/C=C2\CCC(CCN3CCOCC3)C2=O)cc1 (stereo unspecified) = inactive
CCCCCCCCCOC(=S)NCCCCC = inactive

Look up the recorded call for COC(=O)/C([Se]c1c(C)cc(C)cc1C)=C(/[Se]c1c(C)cc(C)cc1C)C(=O)OC in this test.
inactive
